Hey, just so you know, these numbers are from patent US7935722B2.

biological target: human AR (androgen receptor) (Homo sapiens); construct: expressed in transfected cells; host or cells: 293 cells (293-AR lysate); assay: Steroid hormone nuclear receptor binding assay, AR binding; conditions: average of n trials; read-out: AR binding Ki
Listed next: entries and their corresponding pKi.
A value of pKi is the negative decimal logarithm of a concentration given in moles per litre.

Examples with their reported pKi follow.
- molecule: "CO/N=C/c1ccc2c(c1)c1c(n2Cc2cccc(F)c2)CC[C@@H](NC(=O)C(C)C)C1"
  systemTested: "human AR (androgen receptor) (Homo sapiens)"
  metric: "pKi"
  numericResult: 8.54
- molecule: "CN(C)C(=O)NC1CCc2c(c3cc(OC(F)(F)F)ccc3n2Cc2cccc(F)c2)C1 (stereo not shown)"
  systemTested: "human AR (androgen receptor) (Homo sapiens)"
  metric: "pKi"
  numericResult: 8.08
- molecule: "CC(C)C(=O)NC1CCc2c(c3cc(C(F)F)ccc3n2Cc2cccc(F)c2)C1 (stereo not shown)"
  systemTested: "human AR (androgen receptor) (Homo sapiens)"
  metric: "pKi"
  numericResult: 8.49

Could you now consider this next molecule?
Exercise: // returns reported pKi for input O=C(N[C@@H]1CCc2c(c3cc(/C=N/O)ccc3n2Cc2cccc(F)c2)C1)C1CC1
Solution: 7.91

###

Molecular target: human androgen receptor (AR) (Homo sapiens, UniProt P10275)
Construct: expressed in transfected cells; host or cells: mouse myoblast C2C12 cells, transiently co-transfected
Sequence (P10275 1-920): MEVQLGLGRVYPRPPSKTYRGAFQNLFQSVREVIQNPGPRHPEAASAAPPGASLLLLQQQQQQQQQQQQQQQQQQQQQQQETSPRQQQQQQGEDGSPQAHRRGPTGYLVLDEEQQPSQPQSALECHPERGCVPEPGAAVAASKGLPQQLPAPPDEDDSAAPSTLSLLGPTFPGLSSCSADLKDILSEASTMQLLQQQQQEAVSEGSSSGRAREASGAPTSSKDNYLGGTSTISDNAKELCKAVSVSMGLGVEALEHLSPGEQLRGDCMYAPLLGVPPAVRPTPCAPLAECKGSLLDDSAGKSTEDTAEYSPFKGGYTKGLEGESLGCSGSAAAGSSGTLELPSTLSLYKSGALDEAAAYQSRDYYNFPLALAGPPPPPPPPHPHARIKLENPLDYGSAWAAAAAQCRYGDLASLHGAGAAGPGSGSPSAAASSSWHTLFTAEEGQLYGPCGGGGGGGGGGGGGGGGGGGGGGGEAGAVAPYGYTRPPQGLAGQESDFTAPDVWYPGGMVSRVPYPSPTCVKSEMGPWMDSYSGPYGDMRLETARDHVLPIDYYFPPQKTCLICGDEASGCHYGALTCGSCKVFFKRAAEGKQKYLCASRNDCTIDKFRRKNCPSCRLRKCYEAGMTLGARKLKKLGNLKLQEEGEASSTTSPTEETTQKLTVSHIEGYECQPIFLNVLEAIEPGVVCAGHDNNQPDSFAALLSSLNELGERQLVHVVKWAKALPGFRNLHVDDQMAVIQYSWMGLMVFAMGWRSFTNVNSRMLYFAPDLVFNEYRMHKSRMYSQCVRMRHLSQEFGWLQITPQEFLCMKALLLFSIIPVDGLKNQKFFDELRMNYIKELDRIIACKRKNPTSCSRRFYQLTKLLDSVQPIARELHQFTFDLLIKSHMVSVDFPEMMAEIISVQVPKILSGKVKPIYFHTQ
Assay: C2C12 AR/ARE reporter assay
Format: cell-based
Details: C2C12 AR/ARE reporter assay; average of n trials; read-out: C2C12 % Efficacy
Description: As an indicator of agonist activity in muscle tissue, the C2C12 AR/ARE reporter assay is performed. Briefly, mouse myoblast C2C12 cells are co-transfected using FuGENE™. […] Cells are transfected in T150 cm^2 flasks in DMEM media with 4% or 10% Fetal Bovine Serum (PBS). […] After 48 h of incubations with compounds, cells are lysed and luciferase activity is determined using standard techniques. […] The % efficacy is determined versus maximum stimulation obtained with 10 nM methyltrienolone. […]
Label scheme for Emax: lower than 70% is N, 70% and above is Y.

Past entries and their recorded results:
- compound: "CC(C)C(=O)NC1CCc2c(c3cc(C#N)ccc3n2Cc2nccs2)C1 (centres unmarked)"
  systemTested: "human androgen receptor (AR) (Homo sapiens, UniProt P10275)"
  groupLabel: "Y"
- compound: "CCC(=O)NC1CCc2c(c3cc(OC)ccc3n2Cc2ccccc2)C1 (centres unmarked)"
  systemTested: "human androgen receptor (AR) (Homo sapiens, UniProt P10275)"
  groupLabel: "Y"

Exercise: Please check the record O=C(NC1CCc2c(c3cc(Br)ccc3n2Cc2cccc(F)c2)C1)C(F)(F)F (centres unmarked) and state if its Emax is at or above 70%.
Solution: N

Exercise: Please check the record CO/N=C/c1ccc2c(c1)c1c(n2Cc2cccc(F)c2)CC[C@@H](NC(=O)C(C)C)C1 and state if its Emax is at or above 70%.
Solution: Y

###

target: human androgen receptor (AR) (Homo sapiens, UniProt P10275); construct: expressed in transfected cells; host or cells: mouse myoblast C2C12 cells, transiently co-transfected; assay: C2C12 AR/ARE reporter assay; type: cell-based
Each record is given y if its reported EC50 is strictly below 30 nM. Records at or above 30 nM are given n.

Exercise: Record CCOc1ccc2c(c1)c1c(n2Cc2cccc(F)c2)CCC(NC(=O)C(C)C)C1 (centres unmarked) : is its EC50 strictly below 30 nM?
Solution: y

###

Biological target: human androgen receptor (AR) (Homo sapiens, UniProt P10275)
Construct: expressed in transfected cells; host or cells: mouse myoblast C2C12 cells, transiently co-transfected
Sequence (P10275 1-920): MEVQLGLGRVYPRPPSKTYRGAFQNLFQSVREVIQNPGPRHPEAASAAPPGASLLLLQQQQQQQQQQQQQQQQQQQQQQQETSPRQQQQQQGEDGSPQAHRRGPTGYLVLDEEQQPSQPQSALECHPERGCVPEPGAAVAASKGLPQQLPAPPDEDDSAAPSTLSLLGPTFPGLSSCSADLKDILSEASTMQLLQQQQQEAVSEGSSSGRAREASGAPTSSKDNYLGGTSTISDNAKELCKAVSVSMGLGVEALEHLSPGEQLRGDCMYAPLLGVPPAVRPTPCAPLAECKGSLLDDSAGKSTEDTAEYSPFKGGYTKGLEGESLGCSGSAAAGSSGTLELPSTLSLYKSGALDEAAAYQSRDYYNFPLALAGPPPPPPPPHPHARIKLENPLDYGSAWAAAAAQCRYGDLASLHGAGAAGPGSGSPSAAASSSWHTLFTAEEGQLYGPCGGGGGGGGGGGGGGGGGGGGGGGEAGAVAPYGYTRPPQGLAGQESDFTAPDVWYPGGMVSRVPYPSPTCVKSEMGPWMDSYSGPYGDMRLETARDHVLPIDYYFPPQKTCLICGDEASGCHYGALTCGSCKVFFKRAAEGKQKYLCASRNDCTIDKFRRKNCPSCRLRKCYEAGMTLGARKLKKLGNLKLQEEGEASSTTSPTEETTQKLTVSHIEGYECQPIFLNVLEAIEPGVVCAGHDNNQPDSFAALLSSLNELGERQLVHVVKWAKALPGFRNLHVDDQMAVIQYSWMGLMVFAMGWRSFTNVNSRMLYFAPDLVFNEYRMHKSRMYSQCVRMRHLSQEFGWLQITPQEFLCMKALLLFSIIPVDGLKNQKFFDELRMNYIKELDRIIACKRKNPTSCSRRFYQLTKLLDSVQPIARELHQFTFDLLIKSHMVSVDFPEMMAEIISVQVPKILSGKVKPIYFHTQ
Test: C2C12 AR/ARE reporter assay
Format: cell-based
Conditions: C2C12, read-out: C2C12 % Efficacy
metric: Emax (%)
Supply the numeric figure in %, leaving out any unit text.

Examples with their reported Emax follow.
- compound: "CC(C)C(=O)NC1CCc2c(c3cc(Cl)ccc3n2Cc2cccc(F)c2)C1 (centres unmarked) [Example 21]"
  systemTested: "human androgen receptor (AR) (Homo sapiens, UniProt P10275)"
  Emax / %: 81
- compound: "CC(C)C(=O)NC1CCc2c(c3cc(C#N)cc(F)c3n2Cc2cccc(F)c2)C1 (centres unmarked) [Example 121]"
  systemTested: "human androgen receptor (AR) (Homo sapiens, UniProt P10275)"
  Emax / %: 110
- compound: "CC(C)C(=O)NC1CCc2c(c3cc(Br)ccc3n2Cc2cccc(F)c2)C1 (centres unmarked) [Example 35]"
  systemTested: "human androgen receptor (AR) (Homo sapiens, UniProt P10275)"
  Emax / %: 74.1
- compound: "N#Cc1ccc2c(c1)c1c(n2Cc2cccc(F)c2)CC[C@@H](NC(=O)C2CC2)C1 [Example 194]"
  systemTested: "human androgen receptor (AR) (Homo sapiens, UniProt P10275)"
  Emax / %: 95.5
- compound: "CC(C)C(=O)NC1CCc2c(c3cc(-c4cccnc4)ccc3n2Cc2cccc(F)c2)C1 (centres unmarked) [Example 132]"
  systemTested: "human androgen receptor (AR) (Homo sapiens, UniProt P10275)"
  Emax / %: 83.9
- compound: "COC(=O)N[C@@H]1CCc2c(c3cc(C#N)ccc3n2Cc2cccc(F)n2)C1 [Example 186]"
  systemTested: "human androgen receptor (AR) (Homo sapiens, UniProt P10275)"
  Emax / %: 103

Exercise: // returns reported Emax for input COc1ccc2c(c1)c1c(n2Cc2cccnc2)CCC(NC(=O)C(C)C)C1 (centres unmarked) [Example 144]
Solution: 41.4

Exercise: // returns reported Emax for input CC(C)C(=O)NC1CCc2c(c3ccc(Cl)cc3n2Cc2cccc(F)c2)C1 (centres unmarked) [Example 56]
Solution: 66.6

Exercise: // returns reported Emax for input CC(C)C(=O)N[C@@H]1CCc2c(c3cc(C#N)ccc3n2Cc2cnccn2)C1 [Example 160]
Solution: 89.5
